Target: T1, human SLITRK6 on cells (human, UniProt Q9H5Y7 27-841)
T1 construct: whole, on cells
Experiment: flow cytometry on CHP-212 cells, PE-conjugated anti-human Fc
parameter: EC50 (read off the curve)

Problem: Please report the recorded EC50 (read off the curve) for hu1H2-03-LD038 (antibody, V domains shown, drug-linker LD038 conjugated to the antibody; positions not given, also called hu1H2-03-LALA-LD038; hu1H2-03-LD038 (8)) VH: EVQLVESGGGLVQPGGSLRLSCAASGFTFSDYGLHWVRQAPGKGLEWVSYISSGSSTVYFADTLKGRFTISRDNAKNSLYLQMNSLRAEDTAVYYCTRGTWYFDVWGRGTLVTVSS VL: DIQMTQSPSSLSASVGDRVTITCRTSENIHSYLAWYQQKPGKSPQLLVYNAKTLADGVPSRFSGSGSGTDYTLTISSLQPEDFGTFYCQHFWTTSRTFGGGTKVEIK .
Result: ~0.2 nM
